# Kd per entry
- subjectOfTest: T1, full-length wild type recombinant human LCAT (human, UniProt P04180 25-440)
- T1 construct: also called huLCAT; hLCAT
- T1 sequence: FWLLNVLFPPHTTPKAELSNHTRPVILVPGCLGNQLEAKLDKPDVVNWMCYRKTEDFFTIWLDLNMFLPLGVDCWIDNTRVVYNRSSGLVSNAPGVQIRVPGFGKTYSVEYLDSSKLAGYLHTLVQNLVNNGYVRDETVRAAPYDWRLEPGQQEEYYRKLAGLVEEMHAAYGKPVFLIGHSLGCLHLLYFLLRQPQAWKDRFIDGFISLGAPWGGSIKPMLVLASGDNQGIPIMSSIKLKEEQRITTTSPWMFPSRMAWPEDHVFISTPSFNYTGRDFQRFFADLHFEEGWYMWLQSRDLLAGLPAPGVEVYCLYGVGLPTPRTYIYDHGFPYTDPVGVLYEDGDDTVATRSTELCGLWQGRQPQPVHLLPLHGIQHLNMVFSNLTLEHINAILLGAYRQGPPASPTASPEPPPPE
- testMethodNotes: Binding Affinity (nM), Table 12; method not restated (BIAcore of Example 3 presumed)
Write the quantity with the unit trailing the number.

Below: 2 binders and their reported Kd.
binder	Kd
27C3(S42A, S131T, M136I/N107G) (antibody, human IgG2, lambda, V domains shown, IgG2 lambda; The mutations are already in the entries) VH: QVQLQESGPGLVKPSQTLSLTCTVSGASISSGGYNWAWIRQHPGKGLEWIGYIYYSGSTYYNPSLKSRVTISVDTSKNQFSLKLSSVTAADTAVYYCARERGYCSSTTCSRVIDVWGQGTTVTVSS VL: SSELTQDPAVSVALGQTVRITCQGDSLRSYYASWYQQKPGQAPVLVIYGKNNRPSGIPDRFSGSSSGNTASLTITGAQAEDEADYYCGSRDNIGNHQVFGGGTKLTVLG	2.8 nM
27C3(S42A, M136I/N107G, I112V) (antibody, human IgG2, lambda, V domains shown, IgG2 lambda; The mutations are already in the entries) VH: QVQLQESGPGLVKPSQTLSLTCTVSGASISSGGYNWAWIRQHPGKGLEWIGYIYYSGSTYYNPSLKSRVTISVDTSKNQFSLKLSSVTAADTAVYYCARERGYCSSTSCSRVIDVWGQGTTVTVSS VL: SSELTQDPAVSVALGQTVRITCQGDSLRSYYASWYQQKPGQAPVLVIYGKNNRPSGIPDRFSGSSSGNTASLTITGAQAEDEADYYCGSRDNVGNHQVFGGGTKLTVLG	1.2 nM

Turning now to a further record.
# binder 27C3(S42A, S131T, V135I, M136I/I112V) (antibody, human IgG2, lambda, V domains shown, IgG2 lambda; The mutations are already in the entries) VH: QVQLQESGPGLVKPSQTLSLTCTVSGASISSGGYNWAWIRQHPGKGLEWIGYIYYSGSTYYNPSLKSRVTISVDTSKNQFSLKLSSVTAADTAVYYCARERGYCSSTTCSRIIDVWGQGTTVTVSS VL: SSELTQDPAVSVALGQTVRITCQGDSLRSYYASWYQQKPGQAPVLVIYGKNNRPSGIPDRFSGSSSGNTASLTITGAQAEDEADYYCNSRDNVGNHQVFGGGTKLTVLG ; its Kd = 3 nM

These data points were gathered from patent US20150284471A1.
